study system: T1, canine CD20 (canine, UniProt Q3C2E2 1-297)
T1 chain: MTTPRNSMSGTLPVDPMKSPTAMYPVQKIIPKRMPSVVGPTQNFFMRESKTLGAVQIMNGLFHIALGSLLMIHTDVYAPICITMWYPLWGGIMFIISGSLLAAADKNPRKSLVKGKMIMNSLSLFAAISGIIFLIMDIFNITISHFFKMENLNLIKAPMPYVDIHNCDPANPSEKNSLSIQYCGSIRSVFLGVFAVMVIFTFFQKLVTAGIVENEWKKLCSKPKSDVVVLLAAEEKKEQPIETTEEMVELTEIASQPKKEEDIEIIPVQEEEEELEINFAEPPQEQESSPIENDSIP
experiment: cell-based or functional assay
endpoint: CDC EC50 (nM)
Field: numeric (nM). Do not append units.

-- ask What value of CDC EC50 has been recorded for this entry: PMX003 mAb (antibody, V domains shown) VH: EVQLVESGGDLVKPGGSLRLSCVASGITFSRYHMSWVRQAPGKGLQWVAYINSGGSSTSYPDAVKGRFTISRDNAKNTLYLQMDSLRAEDTALYYCTTFDYWGQGTLVTVSS VL: SYVLTQLPSKNVTLKQPAHITCGGDNIGSKSVHWYQQKLGQAPVLIIYYDSRRPTGIPERFSGANSGNTATLTISGALAEDEADYYCQVWDSSANVFGGGTHLTVLG
-- reply 25

-- ask What value of CDC EC50 has been recorded for this entry: PMX080 (antibody, V domains shown) VH: EVQLVESGGDLVKPGGSLRLSCVASGLTFSRYYMNWVRQAPGKGLQWVAYIDSGGSPTNYADAVKGRFTISRDNAKNTLYLQMNSLRAEDTAVYYCSSFDYWGQGTLVTVSS VL: SYVVTQLPSNTVTLKQPAHITCGGDNIGSKSVHWYQQKLGQAPVLIIYYDSRRPTGIPERFSGANSGNTATLTISGALAEDEADYYCQVWDSSANVFGGGTHLTVL
-- reply 21.9

-- ask What value of CDC EC50 has been recorded for this entry: PMX069 (antibody, V domains shown) VH: EMQLVESGGALVKPGGSLRLSCVASGFTFRRYHMSWVRQAPGQGLQWVAYIDSDGSPTSYGDSVKGRFTISRDNAKNTLFLQMNSLRVDDTAVYYCTTLDYWGRGTLVTVSS VL: SYVLTQVPSKNVTLKQPAHITCGGDNIGGKSVHWYQQKLGQAPLLIIYYDTRRPTGIPERFSGANSGNTATLTISRALAEDEADYYCQVWDSSGNVFGGGTHLTVI
-- reply 7.6

-- ask What value of CDC EC50 has been recorded for this entry: PMX074 (antibody, V domains shown) VH: EVQLVESGGDLVKPGGSLRLSCVASGFTFSRYYMTWVRQAPGKGLQWVAYINSDRRSTTYADAVKGRFTISRDNAKNTLYLQMNSLRAEDTAVYYCTTLEYWGQGTLVTVSS VL: SYVLTQLPSKNVTLKQPAHITCGGDNIGSKSVHWYQQKLGQAPVLIIYYDSRRPTGIPERFSGANSGNTATLTINGALAEDEADYYCQVWDSSANVFGGGTHLTVL
-- reply 6.8

-- ask What value of CDC EC50 has been recorded for this entry: PMX066 (antibody, V domains shown) VH: AVQLVESGGDLVKPGGSLRLSCVASGITFSRYHMSWVRQAPGKGLQWVAYINSGGSATSYTDAVKGRFSISRDNGKNTLYLQMNSLRVEDSAVYYCTTLDLWGQGTLVTVSS VL: SYVLTQLPSKNVTLKQPAHITCGGDNIGSKSVHWYQQKLGQAPVLIIYYDSRRPTGIPERFSGANSGNTATLTINGALAEDEADYYCQMWDSSANVFGGGTHLTVL
-- reply 12.1

-- ask What value of CDC EC50 has been recorded for this entry: PMX081 (antibody, V domains shown) VH: EVQLVQSGGDLVKPGGSLRLSCVASGYTFTRYHMSWVRQAPGKGLQWVAFINSDGTGITYGDAVKGRFTISRDNAKNTLYLQMNSLRAEDTAIYYCTTFDSWGQGTLVTVSS VL: SYVLTQLPSKNVTLKQPAHITCGGDNIGSKSVHWYQQKLGQAPILIIYYDSRRPTGIPERFSGANSGNTATLTISGALAEDEADYYCQVWDSSGNVFGGGTHLTVL
-- reply 10.6
